- ASSAY DETAILS: NFAT Signaling Pathway (AID 444);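 further: carbachol stimulus at about its EC50 of 1 µM final; on the % scale 0 is the no-effect control and ±100 the full control effect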
- TEST CONTEXT: Jurkat NFAT-bla M1, carbachol, beta-lactamase ratio, 5 h; at 17.2 µM (top of the series) unless noted
Inconclusive results are not listed.
OBSERVABLE: activity change, negative = inhibition (%)
The response must be a number in % with no trailing unit.

Qu. Which activity change, negative = inhibition is listed for "CCOc1nc(Oc2cccc(C(=O)O)c2)nc(Oc2cccc(C(=O)O)c2)n1" ?
Ans. 0.693

Qu. Which activity change, negative = inhibition is listed for "O=P(Cc1nnco1)(c1ccccc1)c1ccccc1" ?
Ans. -9.88

Qu. Which activity change, negative = inhibition is listed for CCOC(=O)CSC1=C(C#N)C(c2ccc(OC)cc2)C2=C(CC(C)(C)CC2=O)N1 (configuration not stated) ?
Ans. 7.5

Qu. Which activity change, negative = inhibition is listed for "COc1ccc2c(=O)c(-c3nc(C)cs3)coc2c1" ?
Ans. 15.3

Qu. Which activity change, negative = inhibition is listed for "CN(C)/C=C1\N=C(c2ccc(Cl)cc2Cl)OC1=O" ?
Ans. -5.67

Qu. Which activity change, negative = inhibition is listed for "c1ccc(CSc2nnc(SCc3ccccn3)s2)nc1" ?
Ans. 3.91

Qu. Which activity change, negative = inhibition is listed for "CSc1nc(C)cc(OCCNS(=O)(=O)c2cc(C)ccc2C)n1" ?
Ans. -2.9

Qu. Which activity change, negative = inhibition is listed for "N#Cc1nc(-c2cccs2)oc1NCCc1ccccc1" ?
Ans. -0.887

Qu. Which activity change, negative = inhibition is listed for "CCc1cccc(CC)c1N(COC)C(=O)Cn1nnc2ccccc21" ?
Ans. 10

Qu. Which activity change, negative = inhibition is listed for "CCOC(=O)COc1ccc(Oc2nc(C)cc(OC)n2)nn1" ?
Ans. 12.6

Qu. Which activity change, negative = inhibition is listed for CCC1SC2=NC(C)=C(C(=O)OCCOC)C(c3ccc(C(=O)OC)cc3)N2C1=O (configuration not stated) ?
Ans. 6.06

Qu. Which activity change, negative = inhibition is listed for "Cc1cc(C)n(CC(=O)c2ccccc2)c(=O)c1C#N" ?
Ans. -3.95

====

- Tested on: PC15
- ASSAY DETAILS: qHTS profiling for inhibitors of Plasmodium falciparum proliferation (AID 504749); further: nearly all actives have a fitted effect of over 60% in size
- TEST CONTEXT: P. falciparum in erythrocytes, SYBR Green DNA, 72 h; series mostly up to 28.7 µM
Inconclusive results are not listed. The source made the active and inactive calls. The call rests on the fitted dose curve; in most records, active means well fitted inhibition curve with a large enough effect; inconclusive means small, poorly fitted or top-dose-only effect; inactive means flat fitted curve, though single readings scatter.
Hi there, use one of these labels in your reply, thanks! active, inactive

Qu. Field: outcome | Entry: "CNC1=CN(O)C(c2ccccc2)=c2cc(Cl)ccc2=N1"
Ans. inactive

Qu. Field: outcome | Entry: C[C@@H]1CC2C3CCC4=CC(=O)C=C[C@]4(C)[C@@]3(F)[C@@H](O)C[C@]2(C)[C@@]1(O)C(=O)COC(=O)c1cccc(S(=O)(=O)O)c1 (stereo not given in full)
Ans. inactive

Qu. Field: outcome | Entry: "O=[N+]([O-])O[C@H]1CO[C@H]2[C@@H]1OC[C@H]2O"
Ans. inactive

Qu. Field: outcome | Entry: CC(=O)CC(c1ccccc1)C1C(=O)Oc2ccccc2C1=O (stereo not given)
Ans. inactive

Qu. Field: outcome | Entry: Cc1cnc(NC(=O)C2C(=O)c3ccccc3S(=O)(=O)N2C)s1 (stereo not given)
Ans. inactive

Qu. Field: outcome | Entry: "C=C1NC(=O)c2cc(CN(C)c3ccc(C(=O)N[C@@H](CCC(=O)O)C(=O)O)s3)ccc2N1"
Ans. inactive

Qu. Field: outcome | Entry: "O=C(O)[C@H]1C[C@@H](CP(=O)(O)O)CCN1"
Ans. inactive

Qu. Field: outcome | Entry: "CN[C@H](C)CCC=C(C)C"
Ans. active

Qu. Field: outcome | Entry: CC(CCC(=O)O)C1CCC2C3C(=O)C[C@@H]4CC(=O)CC[C@@]4(C)C3CC(=O)[C@]12C (stereo not given in full)
Ans. inactive

Qu. Field: outcome | Entry: "C=C1C(=O)O[C@@H]2[C@@H]1CC/C(C)=C\CC[C@@]1(C)O[C@H]21"
Ans. inactive
